# Tested on: CYP3A
# methodDescription: CYP3A catalytic activity (erythromycin N-demethylation) in mouse liver microsomes
# testSettings: mouse liver microsomes; initial screen n=1; compounds without reported IC50 at 5 µM
Property: Percent control catalytic activity at estimated 2-fold IC50; scope: individual molecules
Just the number please, in percent control, no unit attached.

Data request: State its Percent control catalytic activity at estimated 2-fold IC50 for this molecule: CC(=O)O[C@H]1CC[C@@]2(C)C(=CC[C@@H]3[C@@H]2CC[C@]2(C)C(c4cccnc4)=CC[C@@H]32)C1 [Abiraterone Acetate]
Data returned: 89

Data request: Assign Percent control catalytic activity at estimated 2-fold IC50 to the following record: `O=c1c(O)c(-c2ccccc2)oc2cc(O)cc(O)c12`
Data returned: 123

Data request: Note Percent control catalytic activity at estimated 2-fold IC50 for the molecule shown: `O=c1cc(-c2ccc(O)cc2)oc2cc(O)cc(O)c12`
Data returned: 106

Continuing:
Data request: Give the reported value of Percent control catalytic activity at estimated 2-fold IC50 for this record: `O=C1c2ccccc2C(=O)c2c1ccc(O)c2O`
Data returned: 89

Data request: Find the measured Percent control catalytic activity at estimated 2-fold IC50 of `O=c1cc(-c2ccccc2)oc2cc(O)c(O)c(O)c12` and report it.
Data returned: 99

Data request: Give a short answer stating reported Percent control catalytic activity at estimated 2-fold IC50 for `COc1ccc(/C=C/c2cc(O)cc(O)c2)cc1O` .
Data returned: 157

====

# Tested on: CYP3A
# methodDescription: CYP3A catalytic activity (erythromycin N-demethylation) in mouse liver microsomes
# testSettings: mouse liver microsomes; initial screen n=1; compounds without reported IC50 at 1 µM
Listing of recorded Percent control catalytic activity at estimated IC50 by entry.
Return type: number; implicit unit percent control.

Data request: Provide only the value of recorded Percent control catalytic activity at estimated IC50 for CC(=O)O[C@H]1CC[C@@]2(C)C(=CC[C@@H]3[C@@H]2CC[C@]2(C)C(c4cccnc4)=CC[C@@H]32)C1 [Abiraterone Acetate]
Data returned: 85

Data request: Answer with the recorded Percent control catalytic activity at estimated IC50 for the compound listed here: O=C(/C=C/C=C/c1ccc2c(c1)OCO2)N1CCCCC1 [Piperine]
Data returned: 126

Data request: Please look at this compound and report its Percent control catalytic activity at estimated IC50: O=c1cc(-c2ccc(O)cc2)oc2cc(O)cc(O)c12 [Apigenin]
Data returned: 116

Data request: Supply recorded Percent control catalytic activity at estimated IC50 for O=c1c(O)c(-c2ccccc2)oc2cc(O)cc(O)c12 [Galangin] here.
Data returned: 131

Data request: Read the entry CC(=O)O[C@H](CC=C(C)C)C1=CC(=O)c2c(O)ccc(O)c2C1=O [Acetylshikonin] and write its reported Percent control catalytic activity at estimated IC50.
Data returned: 100

Others:
Data request: Entry C[C@@H]1O[C@@H](O[C@H]2[C@H](Oc3cc(O)c(C(=O)CCc4ccc(O)cc4)c(O)c3)O[C@H](CO)[C@@H](O)[C@@H]2O)[C@H](O)[C@H](O)[C@H]1O [Naringin Dihydrochalcone] needs its Percent control catalytic activity at estimated IC50 filled in; supply it.
Data returned: 92

Data request: Kindly indicate its recorded Percent control catalytic activity at estimated IC50. Item: COc1c(OC)c2occc2c2oc(=O)ccc12 [Pimpinellin]
Data returned: 171

Data request: Return the recorded Percent control catalytic activity at estimated IC50 value; entry: O=C1C[C@@H](c2ccc(O)cc2)Oc2cc(O)cc(O)c21 [Naringenin]
Data returned: 71

====

UGT2B4 catalytic activity at 2-fold IC50 values by entry
# Test system: UGT2B
# methodDescription: p-nitrophenol glucuronidation activity in mouse liver microsomes
# testSettings: mouse; compound at estimated 2-fold IC50
Could you give me the number in µmol/mg/min? Just the number is fine.

Before answering, review these 3 worked examples.
Data request: Return UGT2B4 catalytic activity at 2-fold IC50 (reported value) for this compound: CC(C)=CCC[C@](C)(O[C@@H]1O[C@H](CO)[C@@H](O)[C@H](O)[C@H]1O)[C@H]1CC[C@]2(C)[C@@H]1[C@H](O)C[C@@H]1[C@@]3(C)CC[C@H](O)C(C)(C)[C@@H]3[C@@H](O)C[C@]12C [Ginsenoside F1]
Data returned: 4.36

Data request: Identify UGT2B4 catalytic activity at 2-fold IC50 associated with the compound `CC[C@H]1OC(=O)[C@H](C)[C@@H](O[C@H]2C[C@@](C)(OC)[C@@H](O)[C@H](C)O2)[C@H](C)[C@@H](O[C@@H]2O[C@H](C)C[C@H](N(C)C)[C@H]2O)[C@](C)(OC)C[C@@H](C)C(=O)[C@H](C)[C@@H](O)[C@]1(C)O`
Data returned: 1.77

Data request: State its UGT2B4 catalytic activity at 2-fold IC50 for this compound: O=c1cc(-c2ccccc2)oc2cc(O)ccc12 [7-Hydroxyflavone]
Data returned: 2.55

New cases:
Data request: Dear colleague, please send me the reported UGT2B4 catalytic activity at 2-fold IC50 for COc1cc(C2Oc3ccc([C@H]4Oc5cc(O)cc(O)c5C(=O)[C@@H]4O)cc3OC2CO)ccc1O (stereo partly drawn) when you can.
Data returned: 1.55

Data request: Using known records, supply UGT2B4 catalytic activity at 2-fold IC50 for `C[C@@H]1CC[C@H]2C(C)(C)[C@H]3C[C@@]12CC[C@@]3(C)O`
Data returned: 2.57

Data request: Please give the documented UGT2B4 catalytic activity at 2-fold IC50 of `CC(=O)O[C@H](CC=C(C)C)C1=CC(=O)c2c(O)ccc(O)c2C1=O`
Data returned: 2.92

====

Documented Percent control catalytic activity at estimated 2-fold IC50 across a set of compounds
# Tested on: CYP3A
# methodDescription: CYP3A catalytic activity (erythromycin N-demethylation) in mouse liver microsomes
# testSettings: mouse liver microsomes; initial screen n=1; compounds without reported IC50 at 5 µM
Reply numerically in percent control, unit not repeated.

Data request: Recall the reported Percent control catalytic activity at estimated 2-fold IC50 of c1ccc2[nH]c(-c3cscn3)nc2c1 [Thiabendazole] when tested on CYP3A.
Data returned: 95

Data request: Recall the reported Percent control catalytic activity at estimated 2-fold IC50 of Cl.O=C(O)/C=C/c1ccc(Cn2ccnc2)cc1 [Ozagrel HCl] on CYP3A and write it down.
Data returned: 85

Data request: Report Percent control catalytic activity at estimated 2-fold IC50 from CYP3A testing of C=C[C@@H]1C2=CCOC(=O)C2=CO[C@H]1O[C@@H]1O[C@H](CO)[C@@H](O)[C@H](O)[C@H]1O [Gentiopicroside]
Data returned: 85

Then this compound:
Data request: # assay system CYP3A: give Percent control catalytic activity at estimated 2-fold IC50 of CC(C)(C)C(O)/C(=C\c1ccc(Cl)cc1)n1cncn1 (stereo not shown) [Uniconazole]
Data returned: 40

====

# Tested on: CYP3A
# methodDescription: CYP3A catalytic activity (erythromycin N-demethylation) in mouse liver microsomes
# testSettings: mouse liver microsomes; initial screen n=1; compounds without reported IC50 at 1 µM
Structures can show the parent of a compound that is named as a salt.
Label 1 when Percent control catalytic activity at estimated IC50 is strictly below 90 percent control; at or above that, label 0.

Data request: Given CC(C)(C)C(O)/C(=C\c1ccc(Cl)cc1)n1cncn1 (centres unmarked) , is recorded Percent control catalytic activity at estimated IC50 strictly lower than 90 percent control?
Data returned: 1

Data request: Field: below-cutoff. Rule: recorded Percent control catalytic activity at estimated IC50 strictly less than 90 percent control. Subject: `COc1cc2c(cc1OC)[C@@H](Cc1ccc(Oc3cc(C[C@@H]4c5cc(OC)c(OC)cc5CCN4C)ccc3O)cc1)N(C)CC2`
Data returned: 0

Data request: Lab note: Percent control catalytic activity at estimated IC50 threshold 90 percent control. Does this compound come in strictly under it? CCc1ccc(CCOc2ccc(CC3SC(=O)NC3=O)cc2)nc1 (centres unmarked) [Pioglitazone HCl]
Data returned: 0

Data request: Does this compound meet the criterion Percent control catalytic activity at estimated IC50 < 90 percent control? `O=C(O)[C@H](O)Cc1ccc(O)c(O)c1`
Data returned: 0

Data request: Dear colleague, could you confirm whether Percent control catalytic activity at estimated IC50 of `OC(Cn1cncn1)(Cn1cncn1)c1ccc(F)cc1F` falls below 90 percent control? Thanks.
Data returned: 1

Continuing:
Data request: Could you please tell me whether Percent control catalytic activity at estimated IC50 recorded for `O=C(O)c1ccc(-n2nc(-c3ccccc3O)nc2-c2ccccc2O)cc1` is less than 90 percent control?
Data returned: 1

Data request: Criterion: Percent control catalytic activity at estimated IC50 strictly below 90 percent control. Is it met by `Nc1ccc(S(=O)(=O)Nc2ccnn2-c2ccccc2)cc1` ?
Data returned: 0

Data request: Percent control catalytic activity at estimated IC50 strictly < 90 percent control for this compound? `c1ccc2[nH]c(-c3cscn3)nc2c1`
Data returned: 1

Data request: Given O=C1c2ccc(O)cc2C(=O)c2ccc(O)cc21 [2,6-Dihydroxyanthraquinone] , is recorded Percent control catalytic activity at estimated IC50 strictly lower than 90 percent control?
Data returned: 0

Reference source: paper PMC10253456
